# ASSAY NOTES: splicing luciferase reporter signal modulators, primary screen, spliceosome inhibition project, cell-based, HEK293, splice +/- reporter (AID 1101);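 also: HEK293 cells carrying a splicing-competent luciferase reporter gene; test concentration not given here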
# TEST CONDITIONS: luminescence, 24 h, higher = more signal, called active from +8 up or from −8 down
Activity calls are given as the source filed them.
PROPERTY MEASURED: z-score

Please review the entries below; each comes with its answer.
{"COMPOUND": "COCCOC(=O)N1C(=O)[C@@]2(c3cc(C#CC4=CCCCC4)ccc31)[C@H](C(=O)N1CCCCCCC1)[C@H]1C(=O)O[C@H](c3ccccc3)[C@H](c3ccccc3)N1[C@@H]2c1ccc(O)cc1", "z-score": "-0.802 (inactive)"}
{"COMPOUND": "CC(C)C(=C=CC[C@H](O)c1ccc(OCCO)cc1)C[C@H](O)c1ccccn1", "z-score": "-0.544 (inactive)"}
{"COMPOUND": "COCCOC(=O)N1C(=O)[C@@]2(c3cc(C#CC4=CCCCC4)ccc31)[C@H](c1ccccc1OCCO)N1[C@H](c3ccccc3)[C@H](c3ccccc3)OC(=O)[C@H]1[C@@H]2C(=O)N1CCCCCCC1", "z-score": "-0.262 (inactive)"}
{"COMPOUND": "N#Cc1ccc(NN2C(C(O)c3ccc(F)cc3)C=CC3C(=O)N(c4ccccc4)C(=O)C32)cc1 (stereo unspecified)", "z-score": "1.52 (inactive)"}
{"COMPOUND": "C=CC1c2cc(O)c(OC)cc2CCN1Cc1cc2c(cc1Br)OCO2 (stereo unspecified)", "z-score": "0.203 (inactive)"}
{"COMPOUND": "CN1C(=O)C2C=CC(C(O)c3cccc4ccccc34)N(N3CCCCC3)C2C1=O (stereo unspecified)", "z-score": "1.81 (inactive)"}
{"COMPOUND": "COc1ccc(NC(=O)O[C@H]2[C@H](OC(=O)Nc3ccccc3)[C@@H](OC(=O)Nc3ccccc3)[C@@H](OC)O[C@@H]2CO)cc1", "z-score": "-1.67 (inactive)"}
{"COMPOUND": "C=C(COC)/C(=C/C[C@H](OC(=O)c1ccncc1)c1ccccc1OCCO)c1cnc2ccccc2c1", "z-score": "0.321 (inactive)"}

Respectfully, I request z-score for each entry included below.
1. C[N+](C)(C)CCCCCCNC(=O)[C@H]1C[C@H]2C(=O)N[C@@H](Cc3ccccc3)C(=O)N2[C@H]1c1ccc(O)cc1
2. O=C1C[C@@](C(=O)NCCN2CCOCC2)(c2ccc([N+](=O)[O-])cc2)[C@@H](c2ccc(CO)cc2I)N1C1CCCCC1
3. C=CCN1C(=O)[C@@]2(O[C@@H](CCn3cc([C@H](O)c4ccccc4)nn3)[C@H]([Si](C)(C)c3ccc(OC)cc3)[C@H]2C)c2cc(N3CCC3=O)ccc21
4. COC(=O)c1c2oc(c1C(=O)OC)C(=O)N(C)Cc1cn(nn1)C[C@H](Cc1ccccc1)NC(=O)N[C@H](CO)CC2
5. CN1C(=O)C2C=CC(C(O)C#Cc3ccccc3)N(Nc3ccccc3)C2C1=O (stereo unspecified)

a:
1: -0.0288 (inactive); 2: -0.131 (inactive); 3: -0.429 (inactive); 4: 0.322 (inactive); 5: 1.24 (inactive)

Respectfully, I request z-score for each entry included below.
1. CCOC(=O)C1=CC[C@@H](c2cccc(Cl)c2)N(S(=O)(=O)c2ccc(C)cc2)C1
2. COc1cccc(/C=C/C=O)c1
3. C[N+](C)(C)CCCC[C@@H]1NC(=O)[C@H]2C[C@@H](C(=O)NCCCCCCN)[C@@H](c3ccc(O)cc3)N2C1=O

a:
-2.03 (inactive)
0.85 (inactive)
0.587 (inactive)

###

# ASSAY NOTES: Plasmodium falciparum growth inhibition, primary screen, strain 3D7, DAPI fluorescence, 100 nL (AID 1184);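 also: parasites grown inside human red blood cells in medium with human serum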
# TEST CONDITIONS: P. falciparum 3D7 growth, 3 d, higher = more signal
PROPERTY MEASURED: z-score
Numbers only.

Please review the entries below; each comes with its answer.
{"COMPOUND": "C=CCN1Cc2ccccc2[C@H]2OC(c3ccc(OCCCO)cc3)=N[C@@]2(CC=C)C1=O", "ASSAY VALUE": -2.15}
{"COMPOUND": "COC(=O)CCCCCCC(=O)Nc1ccc(NC(=O)CCCC[P+](c2ccccc2)(c2ccccc2)c2ccccc2)cc1", "ASSAY VALUE": -1.46}
{"COMPOUND": "COc1ccc([Si](C)(C)[C@@H]2[C@@H](CCn3cc([C@H](O)c4ccccc4)nn3)O[C@]3(C(=O)N(Cc4ccc(N5CCC5=O)cc4)c4ccccc43)[C@H]2C)cc1", "ASSAY VALUE": -2.47}

Respectfully, I request z-score for each entry included below.
1. COc1ccc(-c2cc3c(c(CCc4ccccc4)n2)[Si](C(C)C)(C(C)C)OC3)cn1
2. COc1ccccc1CN1C(=O)c2ccccc2[C@@]2(Cc3ccccc3N(CC(F)(F)F)C2=O)[C@@H]1c1ccc(CO)cc1
3. O=C1N(Cc2ccccc2)Cc2ccccc2[C@@H]2OC(c3ccc(OCCCO)cc3)=N[C@]12CCS(=O)(=O)c1ccccc1

a:
[-0.118, -0.384, -2.17]

Respectfully, I request z-score for each entry included below.
1. COc1ccc([Si](C)(C)[C@@H]2[C@@H](CCO)O[C@]3(C(=O)N(Cc4ccc(N5CCCCC5=O)cc4)c4ccccc43)[C@H]2C)cc1
2. COCCOC(=O)N1C(=O)[C@@]2(c3cc(C#CC4=CCCCC4)ccc31)[C@H](c1ccccc1OCCO)N1[C@H](c3ccccc3)[C@H](c3ccccc3)OC(=O)[C@H]1[C@@H]2C(=O)N1CCCCCCC1
3. CN(C)CCCNC(=O)[C@@]1(c2ccc([N+](=O)[O-])cc2)CC(=O)N(CC23CC4CC(CC(C4)C2)C3)[C@@H]1c1ccc(CO)cc1I
4. COCCOC(=O)N1C(=O)[C@@]2(c3cc(C#CC4=CCCCC4)ccc31)[C@H](C(N)=O)[C@H]1C(=O)O[C@H](c3ccccc3)[C@H](c3ccccc3)N1[C@@H]2c1ccccc1OCCO
5. COC(=O)C(CC#Cc1ccc2c(c1)[C@]1(C(=O)N2)[C@H](c2ccccc2OCCO)N2[C@H](c3ccccc3)[C@H](c3ccccc3)OC(=O)[C@H]2[C@@H]1C(=O)NC[C@H](O)c1ccccc1)C(=O)OC
6. COc1ccc([Si](C)(C)[C@@H]2[C@@H](CC(=O)N(CCO)Cc3ccccc3)O[C@]3(C(=O)N(c4ccccc4)c4ccccc43)[C@H]2C)cc1
7. CC(c1ccccc1)C(O)C1C=CC2C(=O)N(c3ccccc3)C(=O)C2N1Nc1ccc([N+](=O)[O-])cc1 (stereo unspecified)
8. COc1cc2c(cc1O)C(C)N(Cc1ccc([N+](=O)[O-])o1)CC2 (stereo unspecified)

a:
1. -2.69
2. -2.05
3. -2.16
4. -2.03
5. -2.22
6. -2.54
7. -0.917
8. -1.2

###

# System: Human papillomavirus type 1a protein E7 (residues 44-93)
# ASSAY NOTES: HPV1a E7 fragment binders on microarrays, primary screen, biochemical, small-molecule microarray, residues 44-93, 635 nm fluorescence (AID 1108);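 also: E7 fragment applied at 1 µg/mL in TBST for 1 h at 4 C; score combines spot fluorescence with its signal to noise ratio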
# TEST CONDITIONS: small-molecule microarray binding, fluorescence 635 nm; higher = more signal
PROPERTY MEASURED: composite z-score
Answers are plain numbers.

{"COMPOUND": "C=CCC(OC(C)=O)[C@@H]1[C@@H](N(Cc2cc3ccccc3o2)C(=O)c2ccc(C)cc2)c2cc(OCCCO)ccc2N1C(=O)Cc1ccc(OC)cc1 (some centres undefined)", "ASSAY VALUE": -0.098}
{"COMPOUND": "COC(=O)c1c(CC[C@@H](CO)NC(=O)N2CCC[C@H]2Cn2cc(Cc3ccccc3)nn2)oc(C(C)=O)c1C(=O)OC", "ASSAY VALUE": 0.916}
{"COMPOUND": "COc1ccc(C#Cc2ccc3c(c2)[C@]2(C(=O)N3)[C@H](c3ccc(O)cc3)N3[C@H](c4ccccc4)[C@H](c4ccccc4)OC(=O)[C@H]3[C@@H]2C(=O)O)cc1", "ASSAY VALUE": 1.19}
{"COMPOUND": "C=CCC(OC(C)=O)[C@@H]1[C@@H](N(Cc2cccc3ccccc23)C(=O)Cc2ccc(OC)cc2)c2cc(OCCCO)ccc2N1C(=O)c1ccc2ccccc2n1 (some centres undefined)", "ASSAY VALUE": 0.26}
{"COMPOUND": "COCCCNC(=O)[C@]1(CCS(=O)(=O)c2ccccc2)N=C(c2ccc(OCCCO)cc2)O[C@@H]1c1ccccc1CN=[N+]=[N-]", "ASSAY VALUE": 0.826}

Respectfully, I request composite z-score for each entry included below.
1. CCC(CC)C(O)C1C=CC2C(=O)N(c3ccccc3)C(=O)C2N1Nc1ccc(C(C)C)cc1 (centres undefined)
2. COc1ccc([Si](C)(C)[C@@H]2[C@@H](CCn3cc([C@H](O)c4ccccc4)nn3)O[C@]3(C(=O)N(Cc4ccc(N5CCC5=O)cc4)c4ccccc43)[C@H]2C)cc1
3. Cn1cccc1C(O)C1C=CC2C(=O)NC(=O)C2N1Nc1ccc(Cl)cc1Cl (centres undefined)
4. N#Cc1ccc(NN2C(C(O)c3ccc(F)cc3)C=CC3C(=O)N(c4ccccc4)C(=O)C32)cc1 (centres undefined)
5. CC(=O)NCCCC[C@@H]1NC(=O)[C@H]2C[C@@H](C(=O)NCCCC[N+](C)(C)C)[C@@H](c3cccc(OCCO)c3)N2C1=O
6. COC(=O)C(CC#Cc1ccc2c(c1)[C@]1(C(=O)N2)[C@H](c2ccccc2OCCO)N2[C@H](c3ccccc3)[C@H](c3ccccc3)OC(=O)[C@H]2[C@@H]1C(=O)NC[C@H](O)c1ccccc1)C(=O)OC

a:
1: 1.28; 2: -0.222; 3: 0.981; 4: 0.771; 5: -0.194; 6: 1.39

Respectfully, I request composite z-score for each entry included below.
1. C=C(COC)C(=O)CC[C@@H](OC(=O)c1cccnc1)c1ccc(OCCO)cc1
2. C=C(/C(=C/C[C@H](OC(C)=O)c1cccc(OCCO)c1)c1cnc2ccccc2c1)C(C)C
3. CCCC[C@@H](O)C1=C(COc2ccccc2)C[C@H]2C(=O)N(C)C(=O)[C@H]2[C@H]1CO

a:
[0.757, 1.05, -1.05]

The reported measurements were obtained from PubChem BioAssay.
